HIEC-6/HepG2 cell coculture system Peptide concentration, Basolateral T0 data
Non-standard residues stand in square brackets, D forms with d. Residues, ends and D or L forms follow the SMILES beside them. Hyp = O=C(O)[C@@H]1C[C@@H](O)CN1

{"columns": ["compound", "endpointName", "result"],
 "data": [
  ["O=C(O)[C@@H]1C[C@@H](O)CN1C(=O)[C@@H]1CCCN1 [Pro-Hyp] (H-Pro-[Hyp]-OH; N-terminus and C-terminus assumed)", "Peptide concentration, Basolateral T0", "0 ± 0 µg/mL"],
  ["NCC(=O)N1CCC[C@H]1C(=O)N1C[C@H](O)C[C@H]1C(=O)O [Gly-Pro-Hyp] (H-Gly-Pro-[Hyp]-OH; N-terminus and C-terminus assumed)", "Peptide concentration, Basolateral T0", "0 ± 0 µg/mL"],
  ["NCC(=O)N1CCC[C@H]1C(=O)O [Gly-Pro] (H-Gly-Pro-OH; N-terminus and C-terminus assumed)", "Peptide concentration, Basolateral T0", "0 ± 0 µg/mL"]
]}

Kindly note the recorded Peptide concentration, Basolateral T0 for C[C@H](N)C(=O)N1C[C@H](O)C[C@H]1C(=O)O [Ala-Hyp] (H-Ala-[Hyp]-OH; N-terminus and C-terminus assumed) , which is 0 ± 0 µg/mL

Source of measurements: patent US20230374112A1
